Listed next: entries and their corresponding IC50.
Target: full length G2019 human LRRK2 (Homo sapiens, UniProt Q5S007, R50H)
Construct: made in house; host or cells: HEK293 6E cells transduced with BacMam virus (virus generated in Sf9 cells)
Sequence (Q5S007 with tags, fused parts or gaps R50H): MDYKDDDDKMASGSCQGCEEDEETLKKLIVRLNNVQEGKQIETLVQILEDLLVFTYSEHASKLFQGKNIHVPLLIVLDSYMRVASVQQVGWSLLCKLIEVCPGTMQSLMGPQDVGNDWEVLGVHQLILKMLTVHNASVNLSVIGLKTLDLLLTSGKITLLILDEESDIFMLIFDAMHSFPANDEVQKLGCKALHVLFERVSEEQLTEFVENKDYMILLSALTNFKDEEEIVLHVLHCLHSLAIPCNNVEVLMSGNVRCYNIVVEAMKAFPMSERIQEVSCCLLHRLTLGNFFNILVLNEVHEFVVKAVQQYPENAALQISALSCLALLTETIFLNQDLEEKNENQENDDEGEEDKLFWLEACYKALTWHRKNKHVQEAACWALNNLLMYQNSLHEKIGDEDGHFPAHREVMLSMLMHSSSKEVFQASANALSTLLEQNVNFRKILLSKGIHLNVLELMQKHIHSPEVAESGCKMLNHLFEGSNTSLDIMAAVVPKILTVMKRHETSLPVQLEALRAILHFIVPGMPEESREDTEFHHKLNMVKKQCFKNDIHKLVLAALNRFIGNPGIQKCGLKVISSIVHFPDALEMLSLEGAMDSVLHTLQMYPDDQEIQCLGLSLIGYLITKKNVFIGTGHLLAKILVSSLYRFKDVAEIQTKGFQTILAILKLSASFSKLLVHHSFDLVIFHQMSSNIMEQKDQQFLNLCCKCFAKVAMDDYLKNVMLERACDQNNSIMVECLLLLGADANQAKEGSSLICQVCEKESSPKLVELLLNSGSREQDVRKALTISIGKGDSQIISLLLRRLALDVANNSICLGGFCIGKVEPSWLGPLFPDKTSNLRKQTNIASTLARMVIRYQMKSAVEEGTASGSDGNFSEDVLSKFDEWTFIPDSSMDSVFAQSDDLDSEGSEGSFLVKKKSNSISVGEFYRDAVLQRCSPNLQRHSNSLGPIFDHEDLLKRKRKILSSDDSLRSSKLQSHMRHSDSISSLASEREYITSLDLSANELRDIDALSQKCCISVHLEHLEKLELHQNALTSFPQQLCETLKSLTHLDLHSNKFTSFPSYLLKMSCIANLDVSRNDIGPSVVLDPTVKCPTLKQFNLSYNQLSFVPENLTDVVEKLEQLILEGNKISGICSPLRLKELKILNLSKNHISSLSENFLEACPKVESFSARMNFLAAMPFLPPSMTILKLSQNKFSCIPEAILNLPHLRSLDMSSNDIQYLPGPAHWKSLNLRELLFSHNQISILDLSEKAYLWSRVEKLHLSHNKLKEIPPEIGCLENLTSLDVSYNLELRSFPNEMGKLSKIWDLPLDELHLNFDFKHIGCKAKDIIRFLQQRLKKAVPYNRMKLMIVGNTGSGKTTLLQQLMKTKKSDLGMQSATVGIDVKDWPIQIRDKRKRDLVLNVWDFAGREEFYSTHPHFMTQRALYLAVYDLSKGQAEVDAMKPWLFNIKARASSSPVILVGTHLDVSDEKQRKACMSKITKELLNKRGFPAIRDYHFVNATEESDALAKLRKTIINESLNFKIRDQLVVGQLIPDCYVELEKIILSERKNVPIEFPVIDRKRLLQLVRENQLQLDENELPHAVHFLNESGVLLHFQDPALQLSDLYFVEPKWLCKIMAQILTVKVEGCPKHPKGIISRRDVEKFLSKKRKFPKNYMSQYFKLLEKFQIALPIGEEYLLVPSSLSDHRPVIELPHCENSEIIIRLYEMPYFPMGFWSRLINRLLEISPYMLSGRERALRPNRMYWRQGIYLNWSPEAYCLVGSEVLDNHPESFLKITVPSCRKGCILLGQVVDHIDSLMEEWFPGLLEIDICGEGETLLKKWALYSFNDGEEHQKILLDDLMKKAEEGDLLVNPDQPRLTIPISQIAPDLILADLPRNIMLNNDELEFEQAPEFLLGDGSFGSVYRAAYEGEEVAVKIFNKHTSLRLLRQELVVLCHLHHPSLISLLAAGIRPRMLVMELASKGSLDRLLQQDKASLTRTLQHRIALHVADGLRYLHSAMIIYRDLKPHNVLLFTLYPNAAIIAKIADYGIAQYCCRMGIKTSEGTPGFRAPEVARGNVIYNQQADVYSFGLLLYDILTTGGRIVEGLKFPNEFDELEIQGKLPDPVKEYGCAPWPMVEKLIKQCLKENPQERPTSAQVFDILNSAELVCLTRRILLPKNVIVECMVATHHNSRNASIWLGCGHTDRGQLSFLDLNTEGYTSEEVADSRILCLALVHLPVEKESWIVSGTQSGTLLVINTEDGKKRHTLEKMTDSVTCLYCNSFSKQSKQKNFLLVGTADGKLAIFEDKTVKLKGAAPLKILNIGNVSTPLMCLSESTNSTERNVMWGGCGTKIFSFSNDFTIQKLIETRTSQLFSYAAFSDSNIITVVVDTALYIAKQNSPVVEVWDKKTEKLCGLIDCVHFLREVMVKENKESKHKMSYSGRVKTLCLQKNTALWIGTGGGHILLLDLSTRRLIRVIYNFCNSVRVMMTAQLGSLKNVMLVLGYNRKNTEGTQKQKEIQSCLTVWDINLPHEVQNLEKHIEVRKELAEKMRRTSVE
Experiment: Full length G2019 human LRRK2 Inhibition Mass Spectrometry assay
Type: biochemical
Conditions: 25 nM LRRK2 enzyme, 25 uM LRRKtide, 2 mM ATP; RapidFire mass spectrometry; read-out: pIC50 in the full length G2019 human LRRK2 Inhibition Mass Spectrometry assay (converted)
Description: a. Full Length G2019 Human LRRK2 Inhibition Mass Spectrometry Assay […] The suspended cells were lysed by sonication on ice for 30 min (2 secs on/4 sec off, 20% amplitude), and centrifuged at 10,000 rpm for 30 minutes at 4° C. […] Protein concentration was determined by Bradford protein assay, and protein purity was analyzed by NuPAG Novex 4-12% Bis-Tris Protein Gels (Invitrogen: NP0322BOX). […]
Where a name gives a salt, the structure may show the parent alone.
Value kind: IC50

In [3]: df
Out[3]:
                                    compound  reported_value
 0  COC(=O)CCN1CCC(c2cc3c(cnn3-c3cc(N4C[C@@H]5C[C@H]4CO5)nc(C)n3)cc2C)CC1        ≤ 100 nM
 1  Cc1nc(N2C[C@]3(CO)C[C@H]2CO3)cc(-n2ncc3cc(C)c(C4CCN([C@H]5CCOC5)CC4)cc32)n1        ≤ 100 nM
 2  COc1nc(N2C[C@@]3(CO)C[C@@H]2CO3)cc(-n2ncc3cc(C)c(C4CCOCC4)cc32)n1         ≤ 10 nM
 3  COc1nc(N2C[C@H]3C[C@@H]2CO3)cc(-n2ncc3cc(C)c(C4CCN(CCS(C)(=O)=O)CC4)cc32)n1        ≤ 100 nM
 4  Cc1nc(N2CC3OCC2C3O)cc(-n2ncc3cc(C)c(C4CCN([C@H]5CCOC5)CC4)cc32)n1 (single isomer, unassigned) [Example E176, TFA Salt]        ≤ 100 nM
 5  Cc1nc(N2C[C@H]3C[C@@H]2CO3)cc(-n2ncc3cc(C)c(C4CCN(CCC(=O)O)CC4)cc32)n1        ≤ 100 nM
 6  Cc1nc(N2C[C@@H]3C[C@H]2CO3)cc(-n2ncc3cc(C)c(C4CCN(CCC(=O)O)CC4F)cc32)n1 (single isomer, unassigned)        ≤ 100 nM
 7  COc1nc(N2CC3(CO)CC2CO3)cc(-n2ncc3cc(C)c(C4CCN(C5COC5)CC4)cc32)n1 (centres unmarked)         ≤ 10 nM
 8  Cc1nc(N2C[C@@]3(CO)C[C@@H]2CO3)cc(-n2ncc3cc(C)c(C4CCN([C@H]5CCOC5)CC4)cc32)n1        ≤ 100 nM
 9  Cc1nc(N2C[C@H]3C[C@@H]2CO3)cc(-n2ncc3cc(C)c(C4CCN(C5CCOC5)CC4F)cc32)n1 (single isomer, unassigned)        ≤ 100 nM
10  Cc1nc(N2CC3(CO)CC2CO3)cc(-n2ncc3cc(C)c(C4CCN(C5COC5)CC4)cc32)n1 (centres unmarked)        ≤ 100 nM

====

Listed here: items and their measured IC50.
Molecular target: LRRK2 Ser935 phosphorylation in SH-SY5Y cells over-expressing recombinant full length LRRK2 (Homo sapiens, UniProt Q5S007)
Construct: A BacMam virus expressing full length recombinant LRRK2 was purchased from Invitrogen; host or cells: SH-SY5Y human neuroblastoma cells transduced with BacMam LRRK2 virus
Sequence (Q5S007 whole entry): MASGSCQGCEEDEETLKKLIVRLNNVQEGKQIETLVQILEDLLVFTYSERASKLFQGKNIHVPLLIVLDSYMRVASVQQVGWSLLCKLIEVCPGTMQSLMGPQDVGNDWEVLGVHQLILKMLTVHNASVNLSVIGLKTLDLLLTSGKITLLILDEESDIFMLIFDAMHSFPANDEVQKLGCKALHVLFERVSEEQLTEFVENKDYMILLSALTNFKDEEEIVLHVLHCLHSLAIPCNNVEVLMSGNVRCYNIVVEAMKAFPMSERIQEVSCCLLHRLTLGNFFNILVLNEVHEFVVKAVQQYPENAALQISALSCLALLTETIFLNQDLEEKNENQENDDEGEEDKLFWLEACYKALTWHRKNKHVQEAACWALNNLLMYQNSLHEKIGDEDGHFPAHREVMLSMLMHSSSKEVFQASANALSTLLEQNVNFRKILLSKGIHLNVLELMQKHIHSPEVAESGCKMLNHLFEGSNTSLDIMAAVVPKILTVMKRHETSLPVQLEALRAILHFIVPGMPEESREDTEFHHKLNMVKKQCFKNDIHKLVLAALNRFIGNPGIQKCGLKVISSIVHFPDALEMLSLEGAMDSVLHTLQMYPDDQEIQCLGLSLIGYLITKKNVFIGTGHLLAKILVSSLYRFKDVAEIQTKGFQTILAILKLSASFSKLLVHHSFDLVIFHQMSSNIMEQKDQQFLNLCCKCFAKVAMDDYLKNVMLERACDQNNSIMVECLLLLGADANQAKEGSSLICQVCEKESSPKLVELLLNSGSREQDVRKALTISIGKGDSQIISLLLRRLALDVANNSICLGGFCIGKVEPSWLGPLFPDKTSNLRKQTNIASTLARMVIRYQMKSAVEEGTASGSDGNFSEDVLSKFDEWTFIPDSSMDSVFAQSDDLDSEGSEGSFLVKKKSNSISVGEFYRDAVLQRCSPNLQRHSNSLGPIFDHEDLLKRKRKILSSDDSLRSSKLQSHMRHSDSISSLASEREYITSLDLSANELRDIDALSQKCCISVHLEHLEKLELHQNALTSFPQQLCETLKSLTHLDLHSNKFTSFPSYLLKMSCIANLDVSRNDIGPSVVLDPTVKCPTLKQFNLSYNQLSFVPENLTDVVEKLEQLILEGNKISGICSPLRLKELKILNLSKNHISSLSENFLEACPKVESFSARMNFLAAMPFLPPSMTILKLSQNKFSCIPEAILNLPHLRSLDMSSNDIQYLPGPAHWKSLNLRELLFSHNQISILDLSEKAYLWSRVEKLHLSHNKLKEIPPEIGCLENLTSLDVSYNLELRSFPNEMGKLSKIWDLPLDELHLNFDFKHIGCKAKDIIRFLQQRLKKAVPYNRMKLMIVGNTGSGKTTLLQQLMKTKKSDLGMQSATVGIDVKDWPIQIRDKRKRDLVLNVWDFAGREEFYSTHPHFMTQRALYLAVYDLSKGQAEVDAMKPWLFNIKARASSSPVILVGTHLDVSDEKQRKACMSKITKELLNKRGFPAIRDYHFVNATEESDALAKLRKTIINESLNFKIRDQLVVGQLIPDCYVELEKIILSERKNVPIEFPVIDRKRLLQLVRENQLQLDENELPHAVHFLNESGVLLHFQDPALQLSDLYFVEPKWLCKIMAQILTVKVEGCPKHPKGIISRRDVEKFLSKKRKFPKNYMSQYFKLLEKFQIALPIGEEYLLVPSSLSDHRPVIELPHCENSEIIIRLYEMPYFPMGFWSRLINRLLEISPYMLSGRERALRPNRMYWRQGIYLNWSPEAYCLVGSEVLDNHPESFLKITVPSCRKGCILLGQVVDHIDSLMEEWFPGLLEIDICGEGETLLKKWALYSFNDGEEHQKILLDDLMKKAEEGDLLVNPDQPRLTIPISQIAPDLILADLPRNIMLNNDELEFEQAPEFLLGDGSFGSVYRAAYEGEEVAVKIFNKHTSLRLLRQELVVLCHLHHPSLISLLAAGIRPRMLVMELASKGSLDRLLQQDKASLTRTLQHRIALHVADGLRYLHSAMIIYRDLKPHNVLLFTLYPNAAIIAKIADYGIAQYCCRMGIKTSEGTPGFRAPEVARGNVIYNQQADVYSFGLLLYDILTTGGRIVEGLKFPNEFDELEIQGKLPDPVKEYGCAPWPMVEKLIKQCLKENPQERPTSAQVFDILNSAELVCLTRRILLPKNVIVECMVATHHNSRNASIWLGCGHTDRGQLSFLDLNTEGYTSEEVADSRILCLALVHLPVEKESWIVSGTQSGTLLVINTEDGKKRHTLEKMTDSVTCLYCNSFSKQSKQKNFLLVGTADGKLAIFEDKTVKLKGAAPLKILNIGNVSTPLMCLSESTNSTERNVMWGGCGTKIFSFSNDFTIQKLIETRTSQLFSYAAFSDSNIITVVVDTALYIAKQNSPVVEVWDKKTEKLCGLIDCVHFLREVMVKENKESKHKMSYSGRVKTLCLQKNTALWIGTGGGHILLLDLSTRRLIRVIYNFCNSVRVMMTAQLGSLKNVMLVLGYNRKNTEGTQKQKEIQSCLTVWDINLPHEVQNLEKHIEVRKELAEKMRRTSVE
Assay: Recombinant cellular LRRK2 AlphaScreen assay
Format: cell-based
Details: human neuroblastoma SH-SY5Y cells, BacMam full length LRRK2, 60 minutes with compound, read-out: pIC50 in the recombinant cellular LRRK2 AlphaScreen assay (converted)
From the text: b. Recombinant Cellular LRRK2 AlphaScreen Assay To determine the activity of compounds against LRRK2 kinase activity in cells, the observed LRRK2 kinase-dependent modulation of LRRK2 Ser 935 phosphorylation (Dzamko et al., 2010, Biochem. J. 430: 405-413) was utilized to develop a quantitative 384 well plate-based immunoassay of LRRK2 Ser935 phosphorylation in the human neuroblastoma cell line SH-SY5Y, engineered to over-express recombinant full length LRRK2 protein. […]
Where a name gives a salt, the structure may show the parent alone.
Value kind: IC50

                                    molecule  reported_value
 0  Cc1nc(N2C[C@H]3C[C@@H]2CO3)cc(-n2ncc3cc(C)c(C4CCN(C5COC5)CC4)cc32)n1 [Example E39]          ≤ 1 µM
 1  Cc1nc(N2CC3CC(C2)O3)cc(-n2ncc3cc(C)c(C4CCN(C5COC5)CC4)cc32)n1 [Example E44]          ≤ 1 µM
 2  COc1nc(N2CC3CC2CO3)cc(-n2ncc3cc(C)c([C@H]4CC[C@@](C)(O)CC4)cc32)n1 (single isomer, unassigned) [Example E11]       ≤ 0.01 µM
 3  COc1nc(N2C[C@@H]3C[C@H]2CO3)cc(-n2ncc3cc(C)c(C4CCN(C5CCOC5)CC4)cc32)n1 (single isomer, unassigned) [Example E15]          ≤ 1 µM
 4  Cc1nc(N2C[C@@H]3C[C@H]2CO3)cc(-n2ncc3cc(C)c(C4CCN(C(=O)CO)CC4)cc32)n1 [Example E54]          ≤ 1 µM
 5  COc1nc(N2C[C@@H]3C[C@H]2CO3)cc(-n2ncc3cc(C)c(C4CCN(CCC(=O)O)CC4F)cc32)n1 (single isomer, unassigned) [Example E161]          ≤ 1 µM
 6  COc1nc(N2CC3CCC(C2)O3)cc(-n2ncc3cc(C)c(C4CCN(C5COC5)CC4)cc32)n1 [Example E41]          ≤ 1 µM
 7  Cc1nc(N2CC3CC2CC3C(=O)O)cc(-n2ncc3cc(C)c(C4CCC(C)(O)CC4)cc32)n1 (single isomer, unassigned) [Example E76, TFA Salt]       ≤ 0.01 µM
 8  COc1nc(N2C[C@H]3C[C@@H]2CO3)cc(-n2ncc3cc(C)c(C4CCNCC4)cc32)n1 [Example E58]          ≤ 1 µM
 9  COc1nc(N2C[C@H]3C[C@@H]2CO3)cc(-n2ncc3cc(Cl)c(C4CCN(C5CCOC5)CC4)cc32)n1 (single isomer, unassigned) [Example E67]          ≤ 1 µM
10  Cc1nc(N2CC3CC(C2)O3)cc(-n2ncc3cc(C)c(C4CCNCC4)cc32)n1 [Example E61, 2,2,2-trifluoroacetate]          ≤ 1 µM
11  COc1nc(N2CC3CC2CO3)cc(-n2ncc3cc(C)c(C4CCN(C5CCOC5)CC4O)cc32)n1 (single isomer, unassigned) [Example E135]          ≤ 1 µM

====

target: LRRK2 Ser935 phosphorylation in SH-SY5Y cells over-expressing recombinant full length LRRK2 (Homo sapiens); construct: A BacMam virus expressing full length recombinant LRRK2 was purchased from Invitrogen; host or cells: SH-SY5Y human neuroblastoma cells transduced with BacMam LRRK2 virus; assay: Recombinant cellular LRRK2 AlphaScreen assay; type: cell-based; conditions: human neuroblastoma SH-SY5Y cells, BacMam full length LRRK2, 60 minutes with compound, read-out: pIC50 in the recombinant cellular LRRK2 AlphaScreen assay (converted)
Value kind: IC50

In [3]: df
Out[3]:
                                   compound  reported_value
0  Cc1nc(N2C[C@@]3(CO)C[C@@H]2CO3)cc(-n2ncc3cc(C)c(C4CCOCC4O)cc32)n1 (single isomer, unassigned) [Example E168]       ≤ 1000 nM
1  COc1nc(N2CC3CC(C2)O3)cc(-n2ncc3cc(C)c(C4CCNCC4)cc32)n1 [Example E60, 2,2,2-trifluoroacetate]       ≤ 1000 nM
2  COc1nc(N2CC3CC2CO3)cc(-n2ncc3cc(C)c(C4CCN(CCO)CC4F)cc32)n1 (single isomer, unassigned) [Example E18]         ≤ 10 nM

====

Collected IC50 values appear next to each entry.
target: LRRK2 Ser935 phosphorylation in SH-SY5Y cells over-expressing recombinant full length LRRK2 (Homo sapiens); construct: A BacMam virus expressing full length recombinant LRRK2 was purchased from Invitrogen; host or cells: SH-SY5Y human neuroblastoma cells transduced with BacMam LRRK2 virus; test: Recombinant cellular LRRK2 AlphaScreen assay; assay type: cell-based; settings: human neuroblastoma SH-SY5Y cells, BacMam full length LRRK2, 60 minutes with compound, read-out: pIC50 in the recombinant cellular LRRK2 AlphaScreen assay (converted)
Structures can show the parent of a compound that is named as a salt.
Value kind: IC50

>>> print(df.to_string())
                                    compound  reported_value
 0  COc1nc(N2C[C@@H]3C[C@H]2CO3)cc(-n2ncc3cc(C)c(C4CCN(CCO)CC4)cc32)n1 [Example E28]       ≤ 1000 nM
 1  COc1nc(N2CC3(CO)CC2CO3)cc(-n2ncc3cc(C)c(C4CCN(C5COC5)CC4)cc32)n1 (stereo not shown) [Example E167]         ≤ 10 nM
 2  Cc1nc(N2CC3OCC2C3O)cc(-n2ncc3cc(C)c(C4CCN([C@H]5CCOC5)CC4)cc32)n1 (single isomer, unassigned) [Example E176, TFA Salt]       ≤ 1000 nM
 3  Cc1nc(N2C[C@H]3C[C@@H]2CO3)cc(-n2ncc3cc(C)c(C4CCN(C5COC5)CC4C)cc32)n1 (stereo partly shown) [Example E55]       ≤ 1000 nM
 4  COc1nc(N2CC3CC2CO3)cc(-n2ncc3cc(C)c([C@H]4CC[C@](C)(O)CC4)cc32)n1 (single isomer, unassigned) [Example E12]       ≤ 1000 nM
 5  [2H]C1(N2CCC(c3cc4c(cnn4-c4cc(N5C[C@H]6C[C@@H]5CO6)nc(OC)n4)cc3C)CC2)COC1 [Example E56]         ≤ 10 nM
 6  COc1nc(N2C[C@@H]3C[C@H]2CO3)cc(-n2ncc3cc(Cl)c(C4CCN(C5COC5)CC4)cc32)n1 [Example E6]       ≤ 1000 nM
 7  Cc1nc(N2C[C@H]3C[C@@H]2CO3)cc(-n2ncc3cc(C)c(C4C5CN(CCS(C)(=O)=O)CC54)cc32)n1 (stereo partly shown) [Example E180]       ≤ 1000 nM
 8  COc1nc(N2C[C@@H]3C[C@H]2CO3)cc(-n2ncc3cc(Cl)c(C4CCN(C5CCOC5)CC4)cc32)n1 (single isomer, unassigned) [Example E69]       ≤ 1000 nM
 9  Cc1nc(N2CC3CCC(C2)O3)cc(-n2ncc3cc(C)c(C4CCNCC4)cc32)n1 [Example E63, 2,2,2-trifluoroacetate]       ≤ 1000 nM
10  COCCN1CCC(c2cc3c(cnn3-c3cc(N4C[C@H]5C[C@@H]4CO5)nc(OC)n3)cc2C)CC1 [Example E35]       ≤ 1000 nM
11  Cc1nc(N2C[C@@H]3C[C@H]2CO3)cc(-n2ncc3cc(Cl)c(N4CCC(C)(O)C4)cc32)n1 (single isomer, unassigned) [Example E47]       ≤ 1000 nM
12  Cc1nc(N2CC3CC2CO3)cc(-n2ncc3cc(C)c([C@H]4CC[C@](C)(O)CC4)cc32)n1 (single isomer, unassigned) [Example E10]       ≤ 1000 nM
13  Cc1nc(N2C[C@H]3C[C@@H]2CO3)cc(-n2ncc3cc(C)c(C4CCN(C5COCC5O)CC4)cc32)n1 (single isomer, unassigned) [Example E172]       ≤ 1000 nM
14  [2H]C([2H])([2H])Oc1nc(N2C[C@H]3C[C@@H]2CO3)cc(-n2ncc3cc(C)c(C4CCN(C5COC5)CC4)cc32)n1 [Example E72]         ≤ 10 nM
15  Cc1nc(N2C[C@@H]3C[C@H]2CO3)cc(-n2ncc3cc(Cl)c(C4CCN(C5COC5)CC4)cc32)n1 [Example E26]       ≤ 1000 nM
16  COc1nc(N2CC3CCC(C2)O3)cc(-n2ncc3cc(C)c(C4CCNCC4)cc32)n1 [Example E62, 2,2,2-trifluoroacetate]       ≤ 1000 nM
17  COc1nc(N2C[C@@H]3C[C@H]2CO3)cc(-n2ncc3cc(C)c(C4CCN(CCC(=O)O)CC4)cc32)n1 [Example E165]       ≤ 1000 nM
18  COc1nc(N2CC3CC(C2)C3C(=O)O)cc(-n2ncc3cc(C)c(OC(C)C)cc32)n1 (stereo not shown) [Example E81]         ≤ 10 nM
19  Cc1nc(N2CC3(CO)CC2CO3)cc(-n2ncc3cc(C)c(C4CCN(C5CCOC5)CC4)cc32)n1 (single isomer, unassigned) [Example E153]       ≤ 1000 nM
20  Cc1nc(N2C[C@@H]3C[C@H]2CO3)cc(-n2ncc3cc(Cl)c(N4CCC(C)(O)CC4)cc32)n1 [Example E33]       ≤ 1000 nM
21  COc1nc(N2CC3CC2CO3)cc(-n2ncc3cc(C)c(C4CCN(C5COC5)CC4O)cc32)n1 (single isomer, unassigned) [Example E132]       ≤ 1000 nM
22  Cc1nc(N2C[C@@H]3C[C@H]2CO3)cc(-n2ncc3cc(C)c(C4CCN(CCO)CC4F)cc32)n1 (single isomer, unassigned) [Example E21]       ≤ 1000 nM
23  Cc1nc(N2CC3CC2CO3)cc(-n2ncc3cc(C)c(C4CCN([C@H]5CCOC5)CC4O)cc32)n1 (single isomer, unassigned) [Example E137]       ≤ 1000 nM
24  Cc1nc(N2C[C@H]3C[C@@H]2CN3C2COC2)cc(-n2ncc3cc(C)c([C@H]4CC[C@](C)(O)CC4)cc32)n1 [Example E31]         1070 nM

Where do the numbers come from? From patent US10858367B2.
